For each entry below, report its pIC50 value.
Target: human CSNK1D (Homo sapiens, UniProt P48730)
Sequence (P48730 whole entry): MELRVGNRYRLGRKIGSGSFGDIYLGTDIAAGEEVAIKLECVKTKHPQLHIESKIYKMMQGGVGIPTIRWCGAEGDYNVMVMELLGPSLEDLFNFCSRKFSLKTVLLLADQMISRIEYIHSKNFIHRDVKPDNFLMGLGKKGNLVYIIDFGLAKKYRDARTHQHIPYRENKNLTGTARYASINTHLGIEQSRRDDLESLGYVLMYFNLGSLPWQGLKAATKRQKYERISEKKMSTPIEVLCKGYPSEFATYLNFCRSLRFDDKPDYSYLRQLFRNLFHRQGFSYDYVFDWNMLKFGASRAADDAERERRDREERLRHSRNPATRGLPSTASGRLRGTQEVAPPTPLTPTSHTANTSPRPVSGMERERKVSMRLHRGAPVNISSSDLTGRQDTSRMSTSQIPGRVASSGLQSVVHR
Test: Whole Cell nBRET CSNK1D Binding Assay
Conditions: living CHO cells stably expressing human CSNK1D tagged with nanoluciferase; NanoBret tracer 130 nM; 2 hours at 37 C
Answers are plain numbers, as −log10 of the molar value.

For every listed record, write down its pIC50.
1. C[C@@H]1Cn2nc(-c3ccc(F)cc3)c(-c3ccnc4[nH]ncc34)c2CO1 (single isomer, unassigned) [Example 82]
2. Fc1ccc(-c2nn3c(c2-c2ccnc4[nH]ncc24)CCC(F)(COC(F)F)C3)nc1 (single isomer, unassigned) [Example 315]
3. COC[C@]1(F)CCc2c(-c3cc(C)nc4[nH]ncc34)c(-c3ccc(F)cn3)nn2C1 (single isomer, unassigned) [Example 304]
4. CC1(C)Cn2nc(-c3ccc(F)cn3)c(-c3ccnc4[nH]ccc34)c2CO1 [Example 147]
5. Cc1cc(-c2c(-c3ccc(F)cn3)nn3c2O[C@H](C)CC3)c2cn[nH]c2n1 (single isomer, unassigned) [Example 201]
6. C[C@@H]1C[C@H](C)n2nc(-c3ccc(F)cn3)c(-c3ccnc4[nH]ncc34)c2O1 (single isomer, unassigned) [Example 203]

# output
1. 7.59
2. 5.73
3. 7.47
4. 7.96
5. 6.61
6. 5.54
